# Tested on: PC-3 prostate
# Procedure Details: NCI tumour cell line growth inhibition, 48 h; in the data active means GI50 below about 0.43 µM; inactive means the rest
Classes used: active, inactive

INSERT INTO results (compound, measured_on, classification) VALUES
  ('N=C(N)c1ccc(-c2ccc(-c3cccs3)s2)cc1', 'PC-3 prostate', 'inactive'),
  ('CCCc1cc(=O)n2c(C(=O)Nc3ccc(Cl)cc3C)c(C(=O)Nc3ccc(F)cc3)sc2n1', 'PC-3 prostate', 'inactive'),
  ('CC(C)(C)[Si](C)(C)OC1[C@@H](CNC(=O)NC(=O)CCl)O[C@@H](n2cnc3c(N)ncnc32)[C@H]1O[Si](C)(C)C(C)(C)C (stereo not given in full)', 'PC-3 prostate', 'inactive'),
  ('COc1cc2c(Nc3cc(Cl)c(OC)c(Cl)c3)c(C#N)cnc2cc1OCCCN1CCN(C)CC1', 'PC-3 prostate', 'inactive'),
  ('Cc1ccc(OCCOCCOCCOCCOc2ccc(C)n(O)c2=S)c(=S)n1O', 'PC-3 prostate', 'active'),
  ('COc1cc2c(/C=N\N=C(N)N)c[nH]c2cc1C', 'PC-3 prostate', 'inactive'),
  ('Nc1ccccc1O.O.O=C(O)C1[O][Sb][O]C1C(=O)O (stereo not given)', 'PC-3 prostate', 'inactive'),
  ('CC(C)c1[nH]nc2c1N=C(c1ccccc1Cl)c1cc([N+](=O)[O-])ccc1N2', 'PC-3 prostate', 'inactive'),
  ('COc1cc2c(cc1O)CCN[C@]21CS[C@@H]2c3c(OC(C)=O)c(C)c4c(c3[C@H](COC1=O)N1[C@@H]2[C@H]2c3c(cc(C)c(OC)c3O)C[C@@H]([C@@H]1O)N2C)OCO4', 'PC-3 prostate', 'active'),
  ('Cc1cc(N/N=C/c2ccccn2)nc2ccccc12', 'PC-3 prostate', 'inactive');

Origin of values: PubChem BioAssay (NCI)
